Could you please report measured LD50 at 24 h for the items listed next?
assay-explanation: Lethal dose was measured at 24 hour in mice following intraperitoneal administration.
Format: toxicity, organism-based
measurement-parameters: mouse, in vivo, ip
Entry rule: numbers only, all in mg/kg.

QUERY: Which LD50 at 24 h is listed for CCCCCCCNC(=O)Oc1ccc2c(c1)C1CCN(C)C2C1 (stereo not drawn) ?
RESULT: 18

QUERY: Which LD50 at 24 h is listed for CCCCCCNC(=O)Oc1ccc2c(c1)[C@]1(C)CCN(CC)[C@@H]1C2 ?
RESULT: 4

QUERY: Which LD50 at 24 h is listed for CCCCCCCNC(=O)Oc1ccc2c(c1)C1CCN(CC)C2C1 (stereo not drawn) ?
RESULT: 22

QUERY: Which LD50 at 24 h is listed for CCCCCCNC(=O)Oc1ccc2c(c1)C1CCN(C)C2C1 (stereo not drawn) ?
RESULT: 6

QUERY: Which LD50 at 24 h is listed for CCN1CCC2CC1c1ccc(OC(=O)NC)cc12 (stereo not drawn) ?
RESULT: 1

QUERY: Which LD50 at 24 h is listed for CCCCCCNC(=O)Oc1ccc2c(c1)C1CCN(CC)C2C1 (stereo not drawn) ?
RESULT: 9

QUERY: Which LD50 at 24 h is listed for CCCCCCNC(=O)Oc1ccc2c(c1)C1(C)CCN(CC)C2C1 (stereo not drawn) ?
RESULT: 9

QUERY: Which LD50 at 24 h is listed for CCCCCCCNC(=O)Oc1ccc2c(c1)C1(C)CCN(CC)C2C1 (stereo not drawn) ?
RESULT: 4
